biological target: SGK1 (Homo sapiens, UniProt O00141, S422D); assay: IC50 determination, biochemical kinase assay; conditions: not in the presence of VHL
Sequence (O00141 60-431 S422D limits assumed, species assumed): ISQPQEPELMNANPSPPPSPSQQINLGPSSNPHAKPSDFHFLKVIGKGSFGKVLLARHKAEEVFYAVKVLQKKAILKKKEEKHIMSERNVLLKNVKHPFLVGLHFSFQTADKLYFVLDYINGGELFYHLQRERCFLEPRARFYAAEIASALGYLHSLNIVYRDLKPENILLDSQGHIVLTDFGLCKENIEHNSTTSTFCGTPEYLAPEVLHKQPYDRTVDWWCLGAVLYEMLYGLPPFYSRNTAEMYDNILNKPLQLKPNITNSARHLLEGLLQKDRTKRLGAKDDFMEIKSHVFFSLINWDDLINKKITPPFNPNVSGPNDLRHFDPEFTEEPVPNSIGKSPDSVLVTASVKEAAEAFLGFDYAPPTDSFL
Recorded measurements of IC50, one per entry
Write the answer as a number in nM, unit excluded.

COMPOUND | IC50 / nM
Cc1ccc(F)c(S(=O)(=O)Nc2ccc(-c3nc(OC[C@H]4CN(CCCCCCOCCOCCOCC(=O)N[C@H](C(=O)N5C[C@@H](O)C[C@H]5C(=O)NCc5ccc(-c6scnc6C)cc5)C(C)(C)C)CCO4)c4cn[nH]c4n3)cc2)c1 [cisSGK3-PROTAC1] | 1400
Cc1ccc(F)c(S(=O)(=O)Nc2ccc(-c3nc(OC[C@H]4CN(CCCCCCOCCOCCOCC(=O)N[C@H](C(=O)N5C[C@H](O)C[C@H]5C(=O)NCc5ccc(-c6scnc6C)cc5)C(C)(C)C)CCO4)c4cn[nH]c4n3)cc2)c1 | 220
Cc1ccc(F)c(S(=O)(=O)Nc2ccc(-c3nc(OC[C@H]4CN(CCOCCOCCOCC(=O)N[C@H](C(=O)N5C[C@H](O)C[C@H]5C(=O)NCc5ccc(-c6scnc6C)cc5)C(C)(C)C)CCO4)c4cn[nH]c4n3)cc2)c1 | 1600
COc1ccc(Cl)c(S(=O)(=O)Nc2ccc(-c3nc(OC[C@H]4CN(CCCCCCOCCOCCOCCOCC(=O)N[C@H](C(=O)N5C[C@H](O)C[C@H]5C(=O)NCc5ccc(-c6scnc6C)cc5)C(C)(C)C)CCO4)c4c(C)n[nH]c4n3)cc2)c1 | 1340
COc1ccc(Cl)c(S(=O)(=O)Nc2ccc(-c3nc(OC[C@H]4CNCCO4)c4c(C)n[nH]c4n3)cc2)c1 [290-R, reference compound] | 19

# evaluate next
IC50 measured on `COc1ccc(Cl)c(S(=O)(=O)Nc2ccc(-c3nc(OC[C@H]4CN(CCOCCOCCOCC(=O)N[C@H](C(=O)N5C[C@H](O)C[C@H]5C(=O)NCc5ccc(-c6scnc6C)cc5)C(C)(C)C)CCO4)c4c(C)n[nH]c4n3)cc2)c1` = 400
